TARGET OR SYSTEM: T1, Human PD-1 (Swiss-Prot entry Q15116), full length, on cells (human, UniProt Q15116 21-288)
T1 construct: Full length open reading frame of hPD-1 stably expressed on CHO-K1 cells; also endogenous PD-1 on CD3/CD28-stimulated human CD3+ T cells and PD-1 on transfected Jurkat cells; also called hPD-1; hPDCD1
T1 sequence (Q15116 21-288, one chain of several): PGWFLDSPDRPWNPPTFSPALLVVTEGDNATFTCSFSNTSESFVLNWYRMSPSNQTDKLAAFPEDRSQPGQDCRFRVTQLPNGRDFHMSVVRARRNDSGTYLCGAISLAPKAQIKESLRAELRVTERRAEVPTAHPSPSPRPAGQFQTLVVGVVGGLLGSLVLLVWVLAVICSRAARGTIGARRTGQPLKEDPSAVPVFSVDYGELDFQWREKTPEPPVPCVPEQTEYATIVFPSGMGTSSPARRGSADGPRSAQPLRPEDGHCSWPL
ASSAY REMARKS: CELISA on CHO-K1.hPDCD1 cells; blocking of biotinylated hPD-L1 Fc
READOUT NAME: pIC50
pIC50 here is simply -log10 of the concentration when that concentration is written in mol/L.

BINDER	pIC50
hPD1.29H5_I28D_T31D_L4 (antibody, V domains shown, Mutant of hPD1.29H5L4 (human IgG4 S241P kappa format of the parent)) VH: EVQLVQSGAEVKKPGASVKVSCKASGYDFTDYYIHWVKQAPGKGLEWIGWIFPGDVSTQYNEKFQDKATITVDKSASTAYMQLSSLRSEDTAVYYCTREAYDYAVYWGQGTLVTVSS VL: DIQMTQAPSSLSASVGDRVTITCKASQNVDTNVAWFQQKPGKAPKSLIFSASYRYSGVPSRFSGSGSGTDFTLTISSLQPEDFATYYCQQYNNYPFTFGGGTKLEIK	8.85

// next item, pIC50 requested
Inquiry: Bench note: what pIC50 did hPD1.29H5_K12V_I28T_T31S_L4 (antibody, V domains shown, Mutant of hPD1.29H5L4 (human IgG4 S241P kappa format of the parent)) VH: EVQLVQSGAEVVKPGASVKVSCKASGYTFTSYYIHWVKQAPGKGLEWIGWIFPGDVSTQYNEKFQDKATITVDKSASTAYMQLSSLRSEDTAVYYCTREAYDYAVYWGQGTLVTVSS VL: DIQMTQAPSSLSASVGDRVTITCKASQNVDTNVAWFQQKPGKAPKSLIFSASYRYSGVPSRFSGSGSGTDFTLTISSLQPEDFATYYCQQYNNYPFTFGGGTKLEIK show?
Reply text: 8.92

Data provenance: patent US20180030137A1
